Tested on: Human immunodeficiency virus 1
ASSAY_METHOD_TEXT: Antiviral activity against HIV-1 infected in human MT4 cells assessed as protection against virus-induced cytotoxicity relative to control
Type: functional
Parameters: concentration or dose not given beside the values
MEASUREMENT_LABEL: Activity

[[record]]
smiles_text = "O=c1c2ccccc2nc(S)n1NCNc1ccccc1"
result = "25%"

[[record]]
smiles_text = "O=c1c2ccccc2nc(S)n1NCNc1ccccn1"
result = "25%"

[[record]]
smiles_text = "Cc1nc2ccccc2c(=O)n1NCN(C)C"
result = "21%"

[[record]]
smiles_text = "O=c1c2ccccc2nc(S)n1NCn1cnc2ccccc21"
result = "25%"


// moving on: another record for Activity
INPUT: Query (molecule): `Cc1nc2ccccc2c(=O)n1NCN1CCOCC1` ; field requested: Activity
OUTPUT: 21%
